Value source: patent US20040086502A1

# Tested system: T1, VEGF(8-109) (UniProt P15692 214-315)
# T1 construct: range 8-109; Covalently coupled to the BIACORE chip (EDC/NHS); also called vascular endothelial growth factor
# T1 sequence (looked up): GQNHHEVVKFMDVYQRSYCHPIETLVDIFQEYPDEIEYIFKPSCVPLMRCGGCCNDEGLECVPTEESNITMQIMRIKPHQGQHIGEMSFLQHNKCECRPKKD
# Method: SPR (BIACORE-2000); reference (wt) is Y0192
Reported Kd(wt)/Kd(mut) values follow for various binders
Only the number, expressed in ratio, is required.

# Binder, Numeric result
rows = [
    ("Y0261-6 Fab (Fab, V domains shown) VH: EVQLVESGGGLVQPGGSLRLSCAASGYTFTNYGMNWVRQAPGKGLEWVGWINTYTGEPTYAADFKRRFTFSLDTSKSTAYLQMNSLRAEDTAVYYCAKYPHYYLKDKKSHWYFDVWGQGTL VL: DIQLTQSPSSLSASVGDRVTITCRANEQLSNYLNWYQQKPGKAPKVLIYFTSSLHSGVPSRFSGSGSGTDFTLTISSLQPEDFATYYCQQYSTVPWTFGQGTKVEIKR", 5),
    ("Y0313-2 Fab (Fab, V domains shown, Combines the CDR H3 insertion of Y0239-19 (VNERK) with T28D/N31H; also called CDR combination variant Y0313-2; Insert-Fab Y0313-2) VH: EVQLVESGGGLVQPGGSLRLSCAASGYDFTHYGMNWVRQAPGKGLEWVGWINTYTGEPTYAADFKRRFTFSLDTSKSTAYLQMNSLRAEDTAVYYCAKYPHYYVNERKSHWYFDVWGQGTL VL: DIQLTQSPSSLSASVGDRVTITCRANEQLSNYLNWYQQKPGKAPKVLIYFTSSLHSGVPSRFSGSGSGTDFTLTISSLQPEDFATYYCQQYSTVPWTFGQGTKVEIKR", 8),
]

Now look at this entry.
[in] Please report the recorded Kd(wt)/Kd(mut) for Y0239-19 Fab (Fab, V domains shown, also called insertion variant with the VNERK motif) VH: EVQLVESGGGLVQPGGSLRLSCAASGYTFTNYGMNWVRQAPGKGLEWVGWINTYTGEPTYAADFKRRFTFSLDTSKSTAYLQMNSLRAEDTAVYYCAKYPHYYVNERKSHWYFDVWGQGTL VL: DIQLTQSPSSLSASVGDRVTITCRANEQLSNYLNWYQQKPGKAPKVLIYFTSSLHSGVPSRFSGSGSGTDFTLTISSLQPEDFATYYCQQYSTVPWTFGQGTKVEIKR .
[out] 9.7
